Source listed as patent US11839613B2.

Reported pIC50 values, PTGER4 (EP4) (Homo sapiens (Human)).
Bear in mind: pIC50 is minus log10 of a mol/L concentration; give just that figure.

Please fill in: pIC50 reported for CCOc1cc(-c2cc(NCCc3cc4c(cc3C#N)OCO4)ncn2)sc1C(=O)O [Ex 64] = 7.39

Please fill in: pIC50 reported for CCOc1cc2ccccc2cc1CCNc1cc(-c2ccc(C(=O)O)c(OCC)c2)ncn1 [Ex 188] = 6.98

Please fill in: pIC50 reported for CCOc1cc(-c2cc(NCCc3ccc4scc(C#N)c4c3)ncn2)sc1C(=O)O [Ex 27] = 7.80

Please fill in: pIC50 reported for CCOc1cc(-c2cc(NCCc3c(C#N)cc4ccccc4c3C)ncn2)ccc1C(=O)O [Ex 54] = 7.17

Please fill in: pIC50 reported for CCOc1cc(-c2cc(NCCc3c(F)cc4ncccc4c3F)ncn2)sc1C(=O)O [Ex 43] = 7.36
